Measured values drawn from patent US20150315130A1 for this set.

Target: UniProt P36544
Assay: α7 NNR flux assay (FDSS calcium flux, Calcium-4 dye, PAM mode with acetylcholine)
Settings: human α7 receptor stably expressed in rat GH4C1 cells; enhancement of response to 20 μM acetylcholine; % modulation relative to PNU-120596 set to 100%
pEC50: −log10 of the molar value.
VALUE_KIND: pEC50

These solved cases illustrate the format of a correct answer.
> print(dat)
                                 mol.smiles  observed.value
1  Cc1ccc([C@H](C)NC(=O)[C@H]2C[C@@H]2c2ccccc2)cc1            5.42
2  COc1ccc([C@H](C)NC(=O)[C@H]2C[C@@H]2c2ccccc2)cc1            5.82

1: C[C@H](NC(=O)[C@H]1C[C@@H]1c1ccccc1)c1ccccc1F
2: COC[C@H](NC(=O)[C@H]1C[C@@H]1c1ccccc1)c1ccc(O)cc1
3: CCOc1ccc([C@H](COC)NC(=O)[C@H]2C[C@@H]2c2ccccc2)cc1
// smallest pEC50 at index 0, largest at the end Give the order by naming the labels one after another as requested.
2, 1, 3
(2: 5.44, 1: 5.72, 3: 7.48)

###

Target: human α7 receptor (Homo sapiens)
Sequence (P36544 23-502): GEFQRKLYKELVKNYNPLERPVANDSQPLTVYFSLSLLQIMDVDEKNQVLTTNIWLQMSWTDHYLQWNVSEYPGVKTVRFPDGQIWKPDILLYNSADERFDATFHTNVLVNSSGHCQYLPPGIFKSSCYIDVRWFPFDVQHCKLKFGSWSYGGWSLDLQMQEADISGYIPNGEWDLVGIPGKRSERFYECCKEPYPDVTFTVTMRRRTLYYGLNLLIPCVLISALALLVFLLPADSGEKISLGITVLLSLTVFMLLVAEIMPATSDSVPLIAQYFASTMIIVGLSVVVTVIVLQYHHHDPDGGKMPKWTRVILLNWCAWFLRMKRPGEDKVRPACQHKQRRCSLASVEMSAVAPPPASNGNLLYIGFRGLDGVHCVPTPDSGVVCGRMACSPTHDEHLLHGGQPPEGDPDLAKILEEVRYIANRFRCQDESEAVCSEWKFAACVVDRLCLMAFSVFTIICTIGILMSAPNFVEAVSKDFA
Experiment: α7 NNR flux assay (FDSS calcium flux, Calcium-4 dye, PAM mode with acetylcholine)
Settings: human α7 receptor stably expressed in rat GH4C1 cells; enhancement of response to 20 μM acetylcholine; % modulation relative to PNU-120596 set to 100%
VALUE_KIND: EC50 (nM)

> print(dat)
                                   compound  observed.value
1  O=C(N[C@@H](CO)c1ccc(O)cc1)[C@H]1C[C@@H]1c1ccc(F)cc1 [Compound 22]            3200

I: COc1ccc([C@H](CO)NC(=O)[C@H]2C[C@@H]2c2cccc(F)c2)cc1 [Compound 14]
II: C[C@H](NC(=O)[C@H]1C[C@@H]1c1ccccc1)c1cccc(F)c1 [Compound 6]
Which shows the larger EC50 value: I or II ? Answer format: the label of the selected item.
II
(II: 3100 nM, I: 400 nM)

###

Target: human α7 receptor (Homo sapiens)
Assay: α7 NNR flux assay (FDSS calcium flux, Calcium-4 dye, PAM mode with acetylcholine)
Conditions: human α7 receptor stably expressed in rat GH4C1 cells; enhancement of response to 20 μM acetylcholine; % modulation relative to PNU-120596 set to 100%
VALUE_KIND: EC50 (nM)

> print(dat)
                                   compound  value.kind  observed.value
1  COc1ccc([C@H](CO)NC(=O)[C@H]2C[C@@H]2c2cccc(F)c2)cc1 [Compound 4]        EC50            1200
2  COc1ccc([C@H](CO)NC(=O)[C@H]2C[C@@H]2c2ccccc2F)cc1        EC50            1200
3  COC[C@H](NC(=O)[C@H]1C[C@@H]1c1cccc(F)c1)c1ccc(OC)cc1        EC50            1100
4  O=C(N[C@@H](CO)c1ccc(O)cc1)[C@H]1C[C@@H]1c1ccccc1        EC50            3900

P: COc1ccc([C@H](CO)NC(=O)[C@H]2C[C@@H]2c2ccccc2)cc1
Q: C[C@H](NC(=O)[C@H]1C[C@@H]1c1ccccc1)c1ccc(F)cc1
P or Q : whose EC50 is greater? Identify your pick by its label.
Q
(Q: 2400 nM, P: 645 nM)

P: O=C(N[C@@H](CO)c1ccc(OCCF)cc1)[C@H]1C[C@@H]1c1ccc(F)cc1
Q: COc1ccc([C@H](CO)NC(=O)[C@H]2C[C@@H]2c2ccc(F)cc2)cc1
EC50 comparison. Which is larger, P or Q ? Please respond with the label that marks your chosen entry.
Q
(Q: 510 nM, P: 140 nM)

###

Molecular target: human α7 receptor (Homo sapiens)
Construct: host or cells: rat GH4C1 cell line
Assay: α7 NNR flux assay (FDSS calcium flux, Calcium-4 dye, PAM mode with acetylcholine)
Assay type: cell-based
Details: human α7 receptor stably expressed in rat GH4C1 cells; enhancement of response to 20 μM acetylcholine; % modulation relative to PNU-120596 set to 100%
VALUE_KIND: EC50 (nM)

Example results:
> print(dat)
                                 mol.smiles  value.kind  uom  observed.value
1  O=C(N[C@@H](CO)c1ccc(OC(F)(F)F)cc1)[C@H]1C[C@@H]1c1ccccc1        EC50   nM            3600
2  COC[C@H](NC(=O)[C@H]1C[C@@H]1c1ccccc1)c1ccc(OC)cc1        EC50   nM             160
3  CCOc1ccc([C@H](CO)NC(=O)[C@H]2C[C@@H]2c2ccccc2)cc1        EC50   nM             270

a: COc1ccc([C@H](CO)NC(=O)[C@H]2C[C@@H]2c2ccccc2)c(F)c1
b: COC[C@H](NC(=O)[C@H]1C[C@@H]1c1ccc(F)cc1)c1ccc(OC)cc1
When the recorded EC50 values are compared, which is smaller: that of a or that of b ? Indicate your choice by writing its label.
b
(b: 84 nM, a: 610 nM)
